experiment: gradient 5% acetonitrile 3 min, to 50% in 2 min, to 85% in 15 min, held 3 min, 100 µL/min; conditions: column: Zorbax Extend-C18 2.1 x 50 mm; eluents: water / acetonitrile, 0.1% formic acid
Observed Property: RP-LC retention time (s)

Compound	RP-LC retention time / s
O=C(CCCc1nc2cccnc2n1Cc1ccc(F)cc1)N1CCN(c2ccccn2)CC1	606
COc1cc(-n2c(=S)[nH]c3ccccc3c2=O)c(Cl)cc1Cl	923
CCCN1C(=O)c2cc(C(=O)NCCc3ccccc3)nn2CC1(C)C(=O)NC1CCCC1 (stereo not given)	864
CC(C)=CCOc1cc(O)c2c(=O)cc(-c3ccccc3)oc2c1	666
COC(CNC(=O)C1CCN(C(=O)c2ncn3c2COC(c2ccc(F)cc2)C3)CC1)OC (stereo not given)	674

(1) O=C(NCc1ccc(Cl)cc1)C1CC(=O)N(CCc2c[nH]c3ccc(F)cc23)C1 (stereo not given)
(2) CC(O)c1ccc(-c2ccc(CNCCCn3ccnc3)o2)cc1 (stereo not given)
Would you let me know which has the greater RP-LC retention time value, 1 or 2 ? Field: selected label. Fill in the label of the entry you choose.
1

(P) O=C(CSc1nc(-c2cccc([N+](=O)[O-])c2)cs1)NCc1ccc2c(c1)OCO2
(Q) CC(NC(=O)c1ccc(-c2ccnc(N3CCCC3)n2)cc1)c1cccnc1 (stereo not given)
Form: Entry with minimum RP-LC retention time (choose one): P / Q Field: selected label. Fill in the label of the entry you choose.
Q
(Q: 586 s, P: 865 s)

----------
experiment: gradient 5% acetonitrile 3 min, to 50% in 2 min, to 85% in 15 min, held 3 min, 100 µL/min; conditions: column: Zorbax Extend-C18 2.1 x 50 mm; eluents: water / acetonitrile, 0.1% formic acid
Observed Property: RP-LC retention time (s)

Observe how each entry below is paired with its result.
Molecule	Observed Property	Unit Symbol	Recorded Measurement
CC(C)n1cc(C2=CCN(S(=O)(=O)Cc3ccccc3)CC2)c2cccnc21	RP-LC retention time	s	1020
Cc1cc(C(=O)N2CCCCC2)c2c(=O)n(CC(=O)NC3CCCCC3)c(=O)n(C)c2n1	RP-LC retention time	s	786
CCOc1ccc(CC(=O)N2CCCC2c2nc(-c3ccccc3Cl)no2)cc1OCC (stereo not given)	RP-LC retention time	s	1050

(A) O=C(CCn1nnc2cc(-c3noc(-c4ccc(F)cc4)n3)ccc21)N1CCCC1
(B) Cn1cnnc1C1CCCCN1C(=O)c1ccc2c(c1)OCO2 (stereo not given)
Form: Entry with minimum RP-LC retention time (choose one): A / B Field: selected label. Fill in the label of the entry you choose.
B

----------
experiment: gradient 5% acetonitrile 3 min, to 50% in 2 min, to 85% in 15 min, held 3 min, 100 µL/min; details: column: Zorbax Extend-C18 2.1 x 50 mm; eluents: water / acetonitrile, 0.1% formic acid
Observed Property: RP-LC retention time (s)

Compound	Unit Symbol	Recorded Measurement
Cc1ccc(S(=O)(=O)N2CC(Cc3nncn3C3CCCC3)C2)cc1Cl	s	795
Cc1ccc(NC(=O)C2CCCN(c3ncnc4c3nc3n4CCCCC3)C2)cc1F (centres undefined)	s	785
CCCNC(=O)c1cn(-c2ccc(S(=O)(=O)N3CCCC(C)C3)cn2)cn1 (centres undefined)	s	884
CC1(C)CS(=O)(=O)N(c2cccc(C(=O)N3CCN(c4ccccn4)CC3)c2)C1=O	s	608
CN(C)C(=O)c1ccc2c(c1)N(CC(=O)Nc1ccc(F)cc1)C(=O)CO2	s	654
Cc1ccc(CNC(=O)C2(C)CN(S(C)(=O)=O)CC(=O)N2Cc2cccc(C)c2)cc1 (centres undefined)	s	868
O=C(NCCN1CCCCCC1)c1csc(-c2ccnc(N3CCOCC3)c2)n1	s	569
CCc1ccc(NC(=O)C2CCN(S(=O)(=O)c3ccc4c(c3)NC(=O)C(C)O4)CC2)cc1 (centres undefined)	s	927

(A) COc1ccc(NC(=O)C2CC(=O)N(c3ccc4oc(C)nc4c3)C2)cc1F (centres undefined)
(B) Cc1ccc(-c2ncc(C(=O)N3CC=C(c4ccccc4)CC3)c(-c3ccncc3)n2)cc1
Would you let me know which has the greater RP-LC retention time value, A or B ? Field: selected label. Fill in the label of the entry you choose.
B
(B: 1110 s, A: 733 s)

----------
assay: gradient 5% acetonitrile 3 min, to 50% in 2 min, to 85% in 15 min, held 3 min, 100 µL/min; conditions: column: Zorbax Extend-C18 2.1 x 50 mm; eluents: water / acetonitrile, 0.1% formic acid
Observed Property: RP-LC retention time (s)

Molecule	RP-LC retention time (s)
CCOC(=O)Nc1ccc2nc(-c3cscn3)[nH]c2c1	651
O=C(Nc1cnn(-c2ncncc2N2CCOCC2)c1)C1CCCC1	624
CC1=C(C(=O)Nc2ccccc2F)C(c2ccccc2Br)NC(=O)N1 (stereo not given)	672
O=S(=O)(c1ccc(-c2cc(C(F)(F)F)on2)o1)N1CCCCC1	1110
O=C(Nc1cnc(N2CCCC2)nc1)c1cccs1	667
CN(C)S(=O)(=O)c1ccc(C(=O)N2CCCC(c3nnc(-c4cccs4)o3)C2)cc1 (stereo not given)	714
Cc1oc(-c2ccccc2)nc1Cc1noc(-c2ccncc2)n1	920
Cc1ccc(CNC(=O)C2(C)Cn3nc(C(=O)NCc4ccc(F)cc4)cc3C(=O)N2C)cc1 (stereo not given)	783
O=C(CCc1nnn2c1CN(C(=O)c1ccccc1)CC2)NC1CC1	604
COc1ccc(-c2nc3ccc(Cl)cn3c2Nc2ccccc2C)cc1	832

----------
experiment: gradient 5% acetonitrile 3 min, to 50% in 2 min, to 85% in 15 min, held 3 min, 100 µL/min; settings: column: Zorbax Extend-C18 2.1 x 50 mm; eluents: water / acetonitrile, 0.1% formic acid
Observed Property: RP-LC retention time (s)

Molecule	Recorded Measurement
O=C(Cc1ccsc1)NCCn1c(=O)n(Cc2ccc(F)cc2)c2cccnc21	781

(P) CC(C)(C)c1csc(-c2csc(S(=O)(=O)NCc3cccs3)c2)n1
(Q) Cc1ccc(NC(=O)C2CCN(S(=O)(=O)c3c(C)[nH]c(C)c3C(=O)N3CCCC3)CC2)cc1C
Would you let me know which has the greater RP-LC retention time value, P or Q ? Field: selected label. Fill in the label of the entry you choose.
P

----------
test: gradient 5% acetonitrile 3 min, to 50% in 2 min, to 85% in 15 min, held 3 min, 100 µL/min; settings: column: Zorbax Extend-C18 2.1 x 50 mm; eluents: water / acetonitrile, 0.1% formic acid
Observed Property: RP-LC retention time (s)

Observe how each entry below is paired with its result.
Compound	Observed Property	Recorded Measurement
Cc1cc(C(F)F)n2nc(C(=O)Nc3ccc(C(C)C)cc3)nc2n1	RP-LC retention time	952
COc1ccc(Cn2nc3c(S(=O)(=O)N4CCCC4)cccn3c2=O)cc1	RP-LC retention time	804
Cn1ncc2c(N3CCOCC3)nc(C(=O)NCc3cccs3)nc21	RP-LC retention time	686
COc1ccc(-c2nnc(COc3ccc(NS(C)(=O)=O)cc3)o2)cc1	RP-LC retention time	762
COc1ccc(C(=O)N2C[C@@H]3C[C@H](NC(=O)c4ccccc4)[C@H]2C3)c(OC)c1	RP-LC retention time	716

(1) Cc1nnc(SCCC(=O)Nc2ccc(F)cc2)s1
(2) CCc1cccc(NC(=O)Cn2nc3cc(C)nc(Nc4ccc(F)c(C)c4)n3c2=O)c1
Would you let me know which has the greater RP-LC retention time value, 1 or 2 ? Field: selected label. Fill in the label of the entry you choose.
2

(1) CCOC(=O)c1sc(NC(=O)Cn2c(=O)oc3ccccc32)nc1C
(2) COc1ccc(Cl)cc1NC(=O)c1cc(C(C)C)n2nccc2n1
Form: Entry with minimum RP-LC retention time (choose one): 1 / 2 Field: selected label. Fill in the label of the entry you choose.
1

----------
experiment: gradient 5% acetonitrile 3 min, to 50% in 2 min, to 85% in 15 min, held 3 min, 100 µL/min; settings: column: Zorbax Extend-C18 2.1 x 50 mm; eluents: water / acetonitrile, 0.1% formic acid
Observed Property: RP-LC retention time (s)

Compound	Unit Symbol	Recorded Measurement
CC1CCN(C(=O)C2=NN(Cc3cccc(F)c3)c3ccccc3S2(=O)=O)CC1	s	1010
CCOC(=O)c1noc2nc(C)nc(NCCCN3CCN(c4cccc(C)c4)C(C)C3)c12 (stereo not given)	s	739
COCCN1CCn2cc(S(=O)(=O)Nc3ccc(OC)c(Cl)c3)cc2C1=O	s	726
COCCOC(=O)c1c(C)oc2ccc(OC(=O)N(C)C)cc12	s	830
Cc1ccc(F)cc1NC(=O)Cn1c(=O)nc(N2CCCCC2)c2ccccc21	s	841
Cc1ccc(-n2nc3c(N4CCCC(C(=O)NCc5ccccc5C)C4)nnc(C)c3c2C)cc1 (stereo not given)	s	779
CCCC(=O)Nc1ccc2c(c1)CN(C(=O)c1ccc(F)cc1F)C(C(=O)N(C)C)C2 (stereo not given)	s	704
O=C(CCc1ccc2c(c1)CNCCO2)NCC1CC1	s	574
Cc1nnc2ccc(-c3noc(-c4ccc(Cl)cc4)n3)cn12	s	959
CN1CCN(c2nc3cc(C(F)(F)F)ccc3n3cccc23)CC1	s	768
